Values compiled from PubChem BioAssay (NCATS).

- system: Ubiquitin carboxyl-terminal hydrolase 1 (Homo sapiens)
- assay-text: Inhibitors of USP1/UAF1: Pilot qHTS (AID 504865); further: nearly all actives have a fitted effect of over 35% in size
- conditions: purified USP1/UAF1, Ub-rhodamine cleavage fluorescence; series mostly up to 114 µM
Results filed as inconclusive are left out. The source made the active and inactive calls. The call rests on the fitted dose curve; in most records, active means well fitted inhibition curve with a large enough effect; inconclusive means small, poorly fitted or top-dose-only effect; inactive means flat fitted curve, though single readings scatter.
Choose the fitting class; nothing outside active, inactive is accepted.

Examples from the recorded data:
Nc1nc2c(c(=O)[nH]1)N=C(CNc1ccc(C(=O)NC(CCC(=O)O)C(=O)O)cc1)CN2 (configuration not stated)    inactive
CC(C)CC(NC(=O)C(COC(C)(C)C)NC(=O)C(Cc1ccc(O)cc1)NC(=O)C(CO)NC(=O)C(Cc1c[nH]c2ccccc12)NC(=O)C(Cc1cnc[nH]1)NC(=O)C1CCC(=O)N1)C(=O)NC(CCCN=C(N)N)C(=O)N1CCCC1C(=O)NNC(N)=O (configuration not stated)    inactive
Cc1onc(-c2c(Cl)cccc2Cl)c1C(=O)NC1C(=O)N2C1SC(C)(C)C2C(=O)O (configuration not stated)    inactive
CC1CC[C@@]23CCC4(C)[C@@]5(C)CCC6C(C)(C)C(=O)CC[C@@]6(C)C5C=C[C@@]4(OC2=O)C3C1C (some centres not stated)    inactive
CC1/C=C/C=C/C=C/C=C/C=C/C=C/C=C/C(OC2OC(C)C(O)C(N)C2O)CC2O[C@@](O)(CC(O)CC(O)C(O)CCC(O)CC(O)CC(=O)OC(C)[C@H](C)C1O)CC(O)C2C(=O)O (some centres not stated)    active

Exam item: Please share the test call associated with C[C@H](C(=O)O)c1cccc(C(=O)c2ccccc2)c1 .
Marked response: inactive

Exam item: Please share the test call associated with NC1C(O)OC(CO)[C@@H](O)[C@@H]1O[C@H]1O[C@@H](C(=O)O)C(O)C(O)C1O (some centres not stated) .
Marked response: inactive

###

- Test system: C2A
- assay-text: qHTS profiling for inhibitors of Plasmodium falciparum proliferation (AID 504749); further: nearly all actives have a fitted effect of over 60% in size
- conditions: P. falciparum in erythrocytes, SYBR Green DNA, 72 h; series mostly up to 28.7 µM
Results filed as inconclusive are left out. Activity calls are given as the source filed them. Calls follow the shape of the dose curve; as a rule, active = well fitted inhibition curve with a large enough effect; inconclusive = small, poorly fitted or top-dose-only effect; inactive = flat fitted curve, though single readings scatter. Square brackets hold non-standard residues; d marks the D form. Peptide text beside a SMILES is read from it. Orn = NCCC[CH](N)C(=O)O
Choose the fitting class; nothing outside active, inactive is accepted.

Examples from the recorded data:
NC(=O)CCC1NC(=O)C(Cc2ccccc2)NC(=O)C(Cc2ccc(O)cc2)NC(=O)CCSSCC(C(=O)N2CCCC2C(=O)NC(CCCN=C(N)N)C(=O)NCC(N)=O)NC(=O)C(CC(N)=O)NC1=O (configuration not stated)    inactive
CC(C)C[C@H](NC(=O)[C@@H](Cc1c[nH]c2ccccc12)NC(=O)[C@@H](Cc1ccc(O)cc1)NC(=O)[C@@H](CO)NC(=O)[C@@H](Cc1c[nH]c2ccccc12)NC(=O)C(Cc1cnc[nH]1)NC(=O)C1CCC(=O)N1)C(=O)N[C@@H](CCCN=C(N)N)C(=O)N1CCC[C@@H]1C(=O)NCC(N)=O (some centres not stated)    inactive

Exam item: Please share the test call associated with CC(=O)OCC1=C(C(=O)O)N2C(=O)C(NC(=O)Cc3ccccc3)C2SC1 (configuration not stated) .
Marked response: inactive

Exam item: Please share the test call associated with CCOC(=O)C(CS)NCCN[C@@H](CS)C(=O)OCC (some centres not stated) .
Marked response: inactive

Exam item: Please share the test call associated with CC(C)CC1NC(=O)C(CCCN)NC(=O)C(C(C)C)NC(=O)C2CCCN2C(=O)C(Cc2ccccc2)NC(=O)C(CC(C)C)NC(=O)C(CCCN)NC(=O)C(C(C)C)NC(=O)C2CCCN2C(=O)C(Cc2ccccc2)NC1=O (configuration not stated) (cyclo(FPV[Orn]LFPV[Orn]L); configuration not given here) .
Marked response: active

Exam item: Please share the test call associated with Cn1cc(O)nc1NC(=O)Nc1cccc(Cl)c1 .
Marked response: inactive

Exam item: Please share the test call associated with O=C(O)c1ccccc1-c1c2cc(Br)c(=O)c(Br)c-2oc2c(Br)c(O)c(Br)cc12 .
Marked response: inactive
